# System: LXRa:RXRa (NR concentration 270 nM, RXRa partner concentration 90 nM)
# ASSAY_DETAILS: PBM binding z-score (relative to random genomic background probes); higher = stronger binding; sequences stand for … in GC…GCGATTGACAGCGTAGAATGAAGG
Label FALSE if PBM binding z-score falls below 5; label TRUE in every other case.

1) CAAACTAGGTCACAGAGGGCAAAGTCCGTGCGTA
FALSE
2) CCTGGCAGGCCAGGGTCACTCAAGCATTTCGCTT
FALSE

Req: Check the entry ACTAGCAGGTCAAGGGTCACTCAAGATTAGTCCG : does PBM binding z-score equal or exceed 5?
Resp: TRUE

Req: Does the reported PBM binding z-score for ACTAGTGGGTCAGCTGAGGTCACACACAATTCGG fall at or above the 5 mark?
Resp: TRUE

Req: Given CGACCTAGGTCAAAGGACAGTGAAAGGCGACGTA , state whether its PBM binding z-score is at least 5.
Resp: FALSE

Req: Can TCGAGTAGGTTAGGGGGGCATTCAGGGATGAAGA be said to have PBM binding z-score at or above 5?
Resp: FALSE

* * *

# Test system: PPARg homodimer (NR concentration 180 nM)
# ASSAY_DETAILS: PBM binding z-score (relative to random genomic background probes); higher = stronger binding; sequences stand for … in GC…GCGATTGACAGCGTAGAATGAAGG
Parameter PBM binding z-score: see the listing below.

The reported PBM binding z-score of the sequence CGTCCAAGGTCAAAGGTCACTGAAGAGATGACGG was 2.49

PBM binding z-score measured on GCTGCTAGGTCAGGATGGTCAGCTAACGGGTACG = 0.599

The sequence listed as CTATGTAGGTTAAGGGGGTTATTCAGTTTGAAAG shows PBM binding z-score equal to 2.61

* * *

# Test system: LXRb:RXRa (NR concentration 270 nM, RXRa partner concentration 90 nM)
# ASSAY_DETAILS: PBM binding z-score (relative to random genomic background probes); higher = stronger binding; sequences stand for … in GC…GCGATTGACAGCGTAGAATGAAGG
Measured PBM binding z-score, listed per entry.
When you answer, write just the number.

Solved entries:
1. CCGAGTAGGTTACGAGGGAGCATTCAGTGCGAAT
1.05
2. CCTACTGGGCCAAGCTCATTGATCAGTCAAAGCA
-0.699
3. CGCACTAGGTCACCAGGACAGTGAAGAGGTTGGA
1.9
4. GGAACGAGGGCAAAGGTGATAGCATCTGTCGACG
1.23
5. CAGACTAGGTCAAAGGTCAAAGTCGAGCCAACCA
7.09

Now take the following sequence into account.
# PBM binding z-score of CGACCTAGGTCACCAGGACAGTGAAGAGGTTGGA = 2.09

* * *

# System: RARb homodimer (NR concentration 270 nM)
# ASSAY_DETAILS: PBM binding z-score (relative to random genomic background probes); higher = stronger binding; sequences stand for … in GC…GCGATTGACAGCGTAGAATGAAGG
EXPERIMENTAL_ENDPOINT: PBM binding z-score
// response body must contain only the number

Answered cases to consult:
1) CTATGTAGGTTAAGGCGGTCATTCAGTTTGAAAG
1.65
2) CTCGAAAGGTCGGTTGAGGTCAGTATACGGATAA
4.41
3) TAGCCTAGGTCCTTCAGGGGCCAGTATAGAAAGC
0.357
4) ATCTGTAGGTTATCGGGTCATTCAGTTTGCGCAT
3.19
5) ACTTACGGGTCAACGACGTTATAGCACGCGTATA
2.87
6) ACTAGTAGGCCAAGGGTCACTCAAGATTAGTCCG
3.88

Value of measured PBM binding z-score for the entry TCATATAGGTCAAAGGTGAAAGTCGGTGTGGTAA : 4.1

Field PBM binding z-score (entry ACTCGGAGGACAAATGTCAGAGCTACGCCAGTGA ) reads 0.623

Per the records, this sequence ( CGAACTAGGTCAAAGGACCGTGAAAGGCGACGTA ) has PBM binding z-score equal to 2.22

The sequence listed as CCTTACGGGTCACGGGGTTATAGCACGACGAGCG shows PBM binding z-score equal to 3.7

Quick note, PBM binding z-score for ATCTCTAGGTCAAAGTTCAGTGAATCCCGAGGAT landed at 4.18

Per the records, this sequence ( CCGAGTAGGTTACGAGGGGCCATTCAGTGCGAAT ) has PBM binding z-score equal to 1.53

response.value for CAAACTAGGTCAAGAGGTCAAAGGCCGCTTCCCG (field: PBM binding z-score) = 5.53

Reported PBM binding z-score for ATATGTAGGTTAGGGTCATTCACAAAGTAGGGAA was 3.69

Data point: CCGACTGGGGCAAAGGTTACCATGCTCAGTACGA ; PBM binding z-score = 2.01

Kindly note the recorded PBM binding z-score for TCGAGTAGGTTACGGAGGCATTCAGGGATGAAGA , which is 0.171

Sample CGTCCAAGGTCACAGGAGGTCAGTGAAGACAGAT ; PBM binding z-score observed: 5.53

PBM binding z-score measured on CCTTACCGGTCAAGGTTATAGCACGGGTGGTACG = 2.84

Entry CAAACTAGGTCAAGGGGTCAAAGTCCGCTTCCCG ; PBM binding z-score = 5.65

Data point: TAGCCTAGGTCATTCAGGGGCTAGTATAGAAAGC ; PBM binding z-score = 2.84

In plain terms, ACTCGGAGGACAAAGGTAAGAGCTACGCCAGTGA has a documented PBM binding z-score of 0.319

Reported PBM binding z-score for TCGAGTTGGTTACGGGGGCATTCAGGGATGAAGA was 1.6

Measured PBM binding z-score, CCTAGCAGGCCAGGTTCACTCAAGCATTTCGCTT : 0.543

Record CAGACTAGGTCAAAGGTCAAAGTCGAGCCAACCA , field PBM binding z-score: 5.25

In plain terms, GATACAGGGTCAGCTAGAGGTCAGAGTATGGAAA has a documented PBM binding z-score of 5.26

CATACAGGGTCATCTAGGCCAGAGTAGGGACGGC has a reported PBM binding z-score of 3.37

* * *

PBM binding z-score: recorded values
# Tested on: PPARg homodimer (NR concentration 180 nM)
# ASSAY_DETAILS: PBM binding z-score (relative to random genomic background probes); higher = stronger binding; sequences stand for … in GC…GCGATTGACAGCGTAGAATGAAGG
Just the number.

1. GCTTACGGGTCAAAAGTTATAGCATGAATAGAAT
1.4
2. CCGAGTAGGTTACGAGTGGGCATTCAGTGCGAAT
0.313
3. AGAATGGGGTTATTAAGATCAGGGAATTGCGGTC
2.23
4. ATATGTGGGTTAGGGTCATTCAGAAAGTAGGGAA
4.09
5. CATACAGGGACAGCTAGGCCAGAGTAGGGACGGC
-0.647

Looking up TAGCCTAGGTCATTGGACCAGTATAGTACGCATC , I found its PBM binding z-score recorded as 1.31

Query CAGCCTAGTTCAGGGCCAGTATAGGAGGAACGTT yields PBM binding z-score of -0.37

The recorded PBM binding z-score for TCGAGTAGGATACGGGGGCATTCAGGGATGAAGA is 0.663

Consider CCTAGCCGGCCAATCTGGGTCACTCAAGGCTTGA . Its measured PBM binding z-score is 0.858

Short answer for CTATGTAGGCTAAGGGGGTCATTCAGTTTGAAAG : PBM binding z-score was 1.72

For reference, reported PBM binding z-score for CAAACTAGGTCACAGAGGTCAACGTCCGTGCGTA stands at 4.43

PBM binding z-score measured on CGTCCAAGGTCAGAGAGGTCACTGAATGCCGAGT = 3.8

* * *

# Test system: RARg:RXRa (NR concentration 270 nM, RXRa partner concentration 90 nM)
# ASSAY_DETAILS: PBM binding z-score (relative to random genomic background probes); higher = stronger binding; sequences stand for … in GC…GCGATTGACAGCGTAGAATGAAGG
EXPERIMENTAL_ENDPOINT: PBM binding z-score

Measured PBM binding z-score, ATATGTAGGTTAGGGTCATTCAGAAAGTAGGGAA : 4.11

Reported PBM binding z-score for CGAACTGGGTCAAAGGACAGTGAAAGGCGACGTA was 3.7

Value of PBM binding z-score reported for the sequence TCGAGTAGGTTACGGGGGCGTTCAGGGATGAAGA is 2.9

Reported PBM binding z-score for TAGCATAGGTCATGCGGGCCAGTATAGTGTCGGC was 4.99

Summary for this sequence, CGAACTAGGTCAAAGGACAGTGATAGGCGACGTA : PBM binding z-score is 3.97

For record AGTCAAAGTTCAGCACGAGGTAACGTAAAGCACG the listed PBM binding z-score is 5.19

sequence CGAACTAGGTCAAAGGACAGCGAAAGGCGACGTA , PBM binding z-score observed: 4.13

Briefly, PBM binding z-score measured for CGAACTAGGTCAAAGTACAGTGAAAGGCGACGTA : 4.13

Noted for ATATGTAGGTTAGGGTCATTTAGAAAGTAGGGAA : its PBM binding z-score reads 3.86

Quick note, PBM binding z-score for TCTAGTTGGTTACGGAGGTCACACACGACGGGTA landed at 4.2
